TESTED TARGET: Human mTOR (FLAG-TOR) (Homo sapiens, UniProt P42345)
Construct: FLAG
EXPERIMENTAL PROTOCOL: Human mTOR kinase assay with purified enzyme, DELFIA format
Assay type: biochemical
CONDITION DESCRIPTION: purified human mTOR enzyme, DELFIA format
Please use class 1 for IC50 under 6 nM and class 0 for everything else, ties included.

# COMPOUND, TESTED TARGET, QUALITATIVE LABEL
records = [
    ("CCn1nc(CN2CCN(C)CC2)c2c(N3CC4CCC(C3)O4)nc(-c3ccc(NC(=O)NC)cc3)nc21", "Human mTOR (FLAG-TOR) (Homo sapiens, UniProt P42345)", "class 0"),
    ("CN1CCN(C2CCC(n3ncc4c(N5CC6CCC(C5)O6)nc(-c5ccc(NC(=O)Nc6ccccc6)cc5)nc43)CC2)CC1 (stereo not shown)", "Human mTOR (FLAG-TOR) (Homo sapiens, UniProt P42345)", "class 1"),
    ("O=C(Nc1ccncc1)Nc1ccc(-c2nc(N3CC4CCC(C3)O4)c3cnn(C4CCC5(CCCO5)CC4)c3n2)cc1 (single isomer, unassigned)", "Human mTOR (FLAG-TOR) (Homo sapiens, UniProt P42345)", "class 1"),
    ("Oc1cccc(-c2nc(N3C[C@@H]4C[C@H]3CO4)c3cnn(-c4ccccc4)c3n2)c1", "Human mTOR (FLAG-TOR) (Homo sapiens, UniProt P42345)", "class 0"),
    ("CCn1nc(N2CCCC2)c2c(N3CC4CCC(C3)O4)nc(-c3ccc(NC(=O)NC)cc3)nc21", "Human mTOR (FLAG-TOR) (Homo sapiens, UniProt P42345)", "class 1"),
]

Say whether its IC50 is strictly beneath 6 nM. Entry: COC(=O)N1CCC(n2ncc3c(N4C5CCC4COC5)nc(-c4ccc(NC(=O)Nc5ccccc5)cc4)nc32)CC1 class 1

For this compound, is IC50 lower than 6 nM? CNC(=O)Nc1ccc(-c2nc(N3CC4CCC(C3)O4)c3cnn([C@H]4CC[C@@H](O)CC4)c3n2)cc1 (relative stereo) class 1

----------
Entries and their measured pIC50 follow.
TESTED TARGET: PI3K (Homo sapiens)
Construct: PI3 Kinase α IC50; other: PI3 Kinase α; other: PI3 Kinase α isoform, fluorescence polarization
EXPERIMENTAL PROTOCOL: Fluorescence polarization assay for PI3K
Type: biochemical
CONDITION DESCRIPTION: PI3 Kinase α isoform, fluorescence polarization; read-out: PI3 Kinase α IC50
Please treat pIC50 as minus the base-10 logarithm of the molar concentration.

# COMPOUND, TESTED TARGET, MEAS VALUE
data = [
    ("O=C(Nc1ccc(-c2nc(N3C4CCC3COC4)c3cnn(CC(F)(F)F)c3n2)cc1)Nc1ccc(N2CCNCC2)cc1", "PI3K (Homo sapiens)", 6.76),
]

Annotate the compound CCn1nc(N2CCCC2)c2c(N3CC4CCC(C3)O4)nc(-c3ccc(NC(=O)Nc4cccnc4)cc3)nc21 with its measured pIC50. 6.35

State, in one line, measured pIC50 of CCn1nc(N2CCCC2)c2c(N3CC4CCC(C3)O4)nc(-c3ccc(NC(=O)NC)cc3)nc21 5.96

Identify measured pIC50 corresponding to CNC(=O)Nc1ccc(-c2nc(N3CC4CCC(C3)O4)c3cnn([C@H]4CC[C@@H](OC)CC4)c3n2)cc1 (relative stereo) 6.15

Specify measured pIC50 for COC(=O)N1CCC(n2ncc3c(N4C5CCC4COC5)nc(-c4ccc(NC(=O)OCCO)cc4)nc32)CC1 . 5.13

Hello, please tell me recorded pIC50 for this one: COC(=O)N1CCC(n2ncc3c(N4C5CCC4COC5)nc(-c4ccc(NC(=O)Nc5ccc(N6CCN(C)CC6)nc5)cc4)nc32)CC1 5.59

Please give the documented pIC50 of COC1CCC(n2ncc3c(N4CC5CCC(C4)O5)nc(-c4ccc(NC(=O)Nc5ccc(N6CCN(C)CC6)nc5)cc4)nc32)CC1 (stereo not shown) 6.47

----------
TESTED TARGET: PI3K (Homo sapiens, UniProt P42336)
Construct: PI3 Kinase α IC50; other: PI3 Kinase α; other: PI3 Kinase α isoform, fluorescence polarization
Sequence (P42336 whole entry, canonical isoform): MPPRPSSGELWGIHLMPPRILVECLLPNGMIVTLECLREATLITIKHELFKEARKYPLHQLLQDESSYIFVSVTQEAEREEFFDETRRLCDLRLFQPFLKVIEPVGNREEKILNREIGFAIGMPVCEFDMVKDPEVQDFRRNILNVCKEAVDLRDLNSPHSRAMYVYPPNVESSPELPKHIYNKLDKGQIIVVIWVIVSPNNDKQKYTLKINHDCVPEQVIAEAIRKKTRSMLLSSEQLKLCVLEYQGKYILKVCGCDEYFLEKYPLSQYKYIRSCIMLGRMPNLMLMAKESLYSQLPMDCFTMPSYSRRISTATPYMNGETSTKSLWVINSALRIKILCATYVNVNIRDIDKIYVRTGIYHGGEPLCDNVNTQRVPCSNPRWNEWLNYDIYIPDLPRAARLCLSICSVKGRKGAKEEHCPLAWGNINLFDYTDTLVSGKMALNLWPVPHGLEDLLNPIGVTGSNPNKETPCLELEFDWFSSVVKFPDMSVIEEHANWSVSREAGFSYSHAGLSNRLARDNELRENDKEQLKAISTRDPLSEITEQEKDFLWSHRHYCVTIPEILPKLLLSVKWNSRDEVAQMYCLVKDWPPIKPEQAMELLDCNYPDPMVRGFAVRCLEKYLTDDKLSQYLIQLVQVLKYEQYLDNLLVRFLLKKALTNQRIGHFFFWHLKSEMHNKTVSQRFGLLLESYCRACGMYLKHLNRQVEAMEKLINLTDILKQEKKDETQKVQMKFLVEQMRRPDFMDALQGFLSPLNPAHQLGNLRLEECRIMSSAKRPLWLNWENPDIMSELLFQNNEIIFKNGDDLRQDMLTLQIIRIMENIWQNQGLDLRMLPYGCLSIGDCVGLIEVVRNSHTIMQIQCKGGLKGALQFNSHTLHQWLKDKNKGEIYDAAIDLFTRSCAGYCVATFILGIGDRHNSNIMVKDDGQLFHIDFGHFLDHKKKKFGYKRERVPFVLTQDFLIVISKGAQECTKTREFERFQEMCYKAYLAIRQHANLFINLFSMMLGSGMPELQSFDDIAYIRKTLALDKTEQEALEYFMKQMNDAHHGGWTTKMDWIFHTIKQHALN
EXPERIMENTAL PROTOCOL: Fluorescence polarization assay for PI3K
Assay type: biochemical
CONDITION DESCRIPTION: PI3 Kinase α isoform, fluorescence polarization; read-out: PI3 Kinase α IC50
Method: This assay is used to determine the IC50 of compounds of the present invention as it identifies inhibitors of PI3 kinase by measuring inhibition. […] Stop/detector mix is prepared by mixing 4 μL Red detector and 1.6 μL or 2.0 μL GST-GRP with 1 mL Stop buffer, which results in 10 nM probe and 70 nM GST-GRP). […] The plates are read after 30-90 minutes keeping the red probe solutions dark. […] Plates are read on machines with filters for Tamra. […]
Please respond with Criterion met when measured IC50 is strictly beneath 1000 nM, and with Criterion not met in all other cases.

Below are worked cases with known answers.
# TEST SMILES, QUALITATIVE LABEL
rows = [
    ("c1cc2cc(-c3nc(N4CC5CCC(C4)O5)c4sccc4n3)ccc2[nH]1", "Criterion not met"),
    ("O=C(Nc1ccc(-c2nc(N3CC4CCC(C3)O4)c3cnn(CC(F)(F)F)c3n2)cc1)NC1CC1", "Criterion not met"),
    ("CNC(=O)Nc1ccc(-c2nc(N3CC4CCC(C3)O4)c3cnn(C4COCOC4)c3n2)cc1", "Criterion not met"),
    ("CCNC(=O)Nc1ccc(-c2nc(N3CC4CCC(C3)O4)c3sc(CN4CCN(S(C)(=O)=O)CC4)cc3n2)cc1", "Criterion met"),
    ("COC(=O)N1CCC(n2ncc3c(N4C5CCC4COC5)nc(-c4ccc(NC(=O)NC5CC5)cc4)nc32)CC1", "Criterion not met"),
    ("O=C(Nc1ccc(CCO)cc1)Nc1ccc(-c2nc(N3C[C@@H]4C[C@H]3CO4)c3cnn(CC(F)(F)F)c3n2)cc1", "Criterion met"),
]

Switching to the query record.
I'd appreciate it if you could check whether COC(=O)N1CCC(n2ncc3c(N4C5CCC4COC5)nc(-c4ccc(NC(=O)Nc5ccccc5)cc4)nc32)CC1 has IC50 smaller than 1000 nM. Criterion not met

----------
We begin with a simple list: items and their reported log10(IC50).
TESTED TARGET: PI3K (Homo sapiens)
Construct: PI3 Kinase α IC50; other: PI3 Kinase α; other: PI3 Kinase α isoform, fluorescence polarization
EXPERIMENTAL PROTOCOL: Fluorescence polarization assay for PI3K
Type: biochemical
CONDITION DESCRIPTION: PI3 Kinase α; read-out: PI3 Kinase α IC50
Could you please treat all values as log10 of IC50 in nM?

Check out these entries, answers already filled in.
# MOLECULE, REPORTED METRIC, MEAS VALUE
data = [
    ("CCn1ncc2c(N3CC4CCC(C3)O4)nc(-c3ccc(NC(=O)NCCC(=O)N4CCN(C)CC4)cc3)nc21 [Example 277]", "log10(IC50)", 3.47),
    ("O=C(Nc1ccccc1)Nc1ccc(-c2nc(N3CC4CCC(C3)O4)c3cnn(C4CCN(Cc5cccnc5)CC4)c3n2)cc1 [Example 17]", "log10(IC50)", 2.35),
    ("COC(=O)N1CCC(n2ncc3c(N4CC5CCC(C4)O5)nc(-c4ccc(NC(=O)OCCN)cc4)nc32)CC1 [Example 114]", "log10(IC50)", 3.16),
    ("CCn1ncc2c(N3CC4CCC(C3)O4)nc(-c3ccc(NC(=O)NCCCNC)cc3)nc21 [Example 49]", "log10(IC50)", 2.99),
    ("Cn1ncc2c(N3CC4CCC(C3)O4)nc(-c3ccc(NC(=O)Nc4ccc(S(C)(=O)=O)cc4)cc3)nc21 [Example 239]", "log10(IC50)", 1.81),
]

Consider the molecule CN1CCN(c2ccc(NC(=O)Nc3ccc(-c4nc(N5CC6CCC(C5)O6)c5cnn(C6CCC7(CC6)OCCO7)c5n4)cc3)cc2)CC1 [Example 135] . State its measured log10(IC50). 2.16

----------
TESTED TARGET: Human mTOR (FLAG-TOR) (Homo sapiens)
Construct: FLAG
EXPERIMENTAL PROTOCOL: Human mTOR kinase assay with purified enzyme, DELFIA format
Format: biochemical
CONDITION DESCRIPTION: purified human mTOR enzyme, DELFIA format
IC50 overview
Give the quantity in nM, number only.

# MOLECULE, MEAS VALUE
data = [
    ("CNC(=O)Nc1ccc(-c2nc(N3CC4CCC(C3)O4)c3sc(CN4CCN(S(C)(=O)=O)CC4)cc3n2)cc1 [Example 429]", 1.41),
    ("CS(=O)(=O)N1CCN(Cc2cc3nc(-c4ccc(NC(=O)Nc5cccnc5)cc4)nc(N4CC5CCC(C4)O5)c3s2)CC1 [Example 433]", 0.56),
    ("CNC(=O)Nc1ccc(-c2nc(N3CC4CCC(C3)O4)c3cnn(C(COC)COC)c3n2)cc1 [Example 319]", 13.5),
    ("O=C(Nc1ccc(-c2nc(N3CC4CCC(C3)O4)c3sccc3n2)cc1)NC1CC1 [Example 410]", 0.71),
    ("CCn1nc(Br)c2c(N3CC4CCC(C3)O4)nc(-c3ccc(NC(=O)NC)cc3)nc21 [Example 397]", 3.1),
]

Entry CCn1nc(N2CCN(C)CC2)c2c(N3CC4CCC(C3)O4)nc(-c3ccc(NC(=O)NC)cc3)nc21 [Example 348] needs its IC50 filled in; supply it. 7.5

Give reported IC50 value for COC(=O)N1CCC(n2ncc3c(N4C5CCC4COC5)nc(-c4ccc(NC(=O)Nc5ccc(OCCN(C)C)cc5)cc4)nc32)CC1 [Example 368] 0.885

Return value of IC50 for input C=Cc1nn(CC)c2nc(-c3ccc(NC(=O)NC)cc3)nc(N3CC4CCC(C3)O4)c12 [Example 350] , no commentary. 1.95

Give a short answer stating reported IC50 for CN1CCN(C2CCC(n3ncc4c(N5CC6CCC(C5)O6)nc(-c5ccc(NC(=O)NC6CC6)cc5)nc43)CC2)CC1 (centres unmarked) [Example 372] . 0.395

Return the recorded IC50 value; entry: O=C(Nc1ccc(-c2nc(N3CC4CCC(C3)O4)c3sccc3n2)cc1)Nc1cccnc1 [Example 412] 0.28

Please look at this molecule and report its IC50: COC(=O)Nc1ccc(-c2nc(N3CC4CCC(C3)O4)c3cnn(C4CCC5(CC4)OCCO5)c3n2)cc1 [Example 377] 2.5

For the molecule Nc1ccc(-c2nc(N3CC4CCC(C3)O4)c3sccc3n2)cn1 [Example 420] , give its reported IC50. 32

Please give the documented IC50 of c1cc2cc(-c3nc(N4CC5CCC(C4)O5)c4sccc4n3)ccc2[nH]1 [Example 419] 22

For COC1CCC(n2ncc3c(N4CC5CCC(C4)O5)nc(-c4ccc(NC(=O)Nc5ccc(OCCN(C)C)cc5)cc4)nc32)CC1 (centres unmarked) [Example 310] , write its IC50. 0.495

Report measured IC50; entry is COC(=O)N1CCC(n2ncc3c(N4C5CCC4COC5)nc(-c4ccc(NC(=O)Nc5ccncc5)cc4)nc32)CC1 [Example 362] 0.26

Query IC50 for O=C(Nc1ccc(-c2nc(N3CC4CCC(C3)O4)c3cnn(CC(F)(F)F)c3n2)cc1)NC1CC1 [Example 395] 0.48

Please give measured IC50 of the following entry: COC(=O)N1CCC(n2ncc3c(N4C5CCC4COC5)nc(-c4ccc(NC(=O)NCCF)cc4)nc32)CC1 [Example 358] 0.495

Give me measured IC50, please, for this molecule: CNC(=O)Nc1ccc(-c2nc(N3CC4CCC(C3)O4)c3cnn(C4CCC(N5CCN(C)CC5)CC4)c3n2)cc1 (centres unmarked) [Example 329] 1.75

Give the reported IC50 for this molecule. Oc1ccc(Nc2nc(N3CC4CCC(C3)O4)c3sccc3n2)cc1 [Example 422] 270

Using known records, supply IC50 for COC(=O)N1CCC(n2ncc3c(N4C5CCC4COC5)nc(-c4ccc(NC(=O)Nc5ccc(N6CCN(C)CC6)nc5)cc4)nc32)CC1 [Example 365] 0.795

Origin of measurements: patent US8129371B2
